Origin of the recorded values: PubChem BioAssay (NCATS)

The compounds listed here are annotated with their Potency.
Target: Cytochrome P450 2C9 (Homo sapiens) (UniProt P11712)
Sequence (P11712 whole entry, looked up): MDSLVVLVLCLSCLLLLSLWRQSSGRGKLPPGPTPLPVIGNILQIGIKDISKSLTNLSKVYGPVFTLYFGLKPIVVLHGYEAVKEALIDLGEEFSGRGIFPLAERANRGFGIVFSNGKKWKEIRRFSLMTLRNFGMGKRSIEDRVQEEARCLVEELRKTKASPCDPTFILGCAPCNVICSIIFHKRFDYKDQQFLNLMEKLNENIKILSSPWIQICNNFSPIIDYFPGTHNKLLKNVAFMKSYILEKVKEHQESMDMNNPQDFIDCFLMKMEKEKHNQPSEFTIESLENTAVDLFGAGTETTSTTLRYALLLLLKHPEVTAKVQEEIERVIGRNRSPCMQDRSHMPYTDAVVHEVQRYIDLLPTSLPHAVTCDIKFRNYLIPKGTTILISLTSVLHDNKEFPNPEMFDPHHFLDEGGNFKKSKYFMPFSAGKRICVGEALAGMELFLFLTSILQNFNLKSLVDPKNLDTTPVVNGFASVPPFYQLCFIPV
Assay: qHTS Assay for Inhibitors and Substrates of Cytochrome P450 2C9 (AID 883); further: potency means the concentration at half of the fitted maximal effect; nearly all actives have a fitted effect of over 60% in size
Conditions: recombinant CYP2C9, luciferin-H luminescence, 60 min; series mostly up to 57.1 µM
Protocol: NIH Molecular Libraries Screening Centers Network [MLSCN] NIH Chemical Genomics Center [NCGC] MLSCN Grant: None NCGC Assay Overview: The P450 gene superfamily is involved in the metabolism and clearance of xenobiotics. […] The luciferin is then measured by luminescence after the addition of a luciferase detection reagent. […] Inhibitors and some substrates limit the production of luciferin, and decrease measured luminescence. […]
Inconclusive results are not listed. Activity calls are given as the source filed them. The call rests on the fitted dose curve; in most records, active means well fitted inhibition curve with a large enough effect; inconclusive means small, poorly fitted or top-dose-only effect; inactive means no such curve, though single readings can be large or run the other way.

Observe how each entry below is paired with its result.
# Potency (compound: "Nc1nc(Nc2ccccc2)nc2c1ncn2[C@@H]1O[C@@H](CO)[C@H](O)[C@H]1O" ) is 0.794 µM (active)

compound "CN(CC[C@@H](Oc1ccc(-c2ccccc2)cc1)c1ccc(F)cc1)CC(=O)O" , Potency observed: 2.51 µM (active)

Record "O=C(Nc1cc(C(=O)Nc2ccc(S(=O)(=O)O)cc2S(=O)(=O)O)cc(C(=O)Nc2ccc(S(=O)(=O)O)cc2S(=O)(=O)O)c1)Nc1cc(C(=O)Nc2ccc(S(=O)(=O)O)cc2S(=O)(=O)O)cc(C(=O)Nc2ccc(S(=O)(=O)O)cc2S(=O)(=O)O)c1" , field Potency: 7.94 µM (active)

# context switch: different compound, same Potency
get_value(item= "Clc1cccc(Nc2nnc(-c3ccccc3)c3ccccc23)c1" , readout=Potency) returns 3.98 µM (active)
